- Tested on: ZS11-luc L31V (HCV genotype 1b replicon)
- Test protocol: Luciferase replicon transient transfection assay, ZS11-luc L31V
- Format: cell-based, hepatitis C virus
Observation type: Ratio

| Compound | Reported measurement |
| --- | --- |
| COC(=O)N[C@H](C(=O)N1CCC[C@H]1c1nc2cc(-c3csc4c(-c5ccc(-c6cnc([C@@H]7CCCN7C(=O)[C@H](NC(=O)OC)c7ccccc7)[nH]6)cc5)csc34)ccc2[nH]1)C(C)C | 14 |
| COC(=O)N[C@H](C(=O)N1CCC[C@H]1c1nc(-c2ccc(-c3ccc(-c4c[nH]c([C@@H]5CCCN5C(=O)[C@@H](NC(=O)OC)C(C)C)n4)cc3)cc2)c[nH]1)C(C)C [BMS-790052, reference compound] | 23 |
| COC(=O)N[C@H](C(=O)N1CCC[C@H]1c1ncc(-c2ccc(-c3csc4c(-c5ccc6[nH]c([C@@H]7CCCN7C(=O)[C@H](NC(=O)OC)c7ccccc7)nc6c5)csc34)cc2)[nH]1)C(C)C | 9 |

###

- Test system: 1a-luc Y93N (HCV genotype 1a replicon)
- Test protocol: Luciferase replicon transient transfection assay, 1a-luc Y93N
- Type: cell-based, hepatitis C virus
Observation type: Ratio

| Molecule | Study system | Reported measurement |
| --- | --- | --- |
| COC(=O)N[C@H](C(=O)N1CCC[C@H]1c1nc2cc(-c3csc4c(-c5ccc(-c6cnc([C@@H]7CCCN7C(=O)[C@H](NC(=O)OC)c7ccccc7)[nH]6)cc5)csc34)ccc2[nH]1)C(C)C | 1a-luc Y93N (HCV genotype 1a replicon) | 14,363 |
| COC(=O)N[C@H](C(=O)N1CCC[C@H]1c1ncc(-c2ccc(-c3csc4c(-c5cnc([C@@H]6CCCN6C(=O)[C@H](NC(=O)OC(C)(C)C)c6ccccc6)[nH]5)csc34)cc2)[nH]1)C(C)C | 1a-luc Y93N (HCV genotype 1a replicon) | >11,202 |
| COC(=O)N[C@H](C(=O)N1CCC[C@H]1c1ncc(-c2ccc(-c3csc4c(-c5ccc6[nH]c([C@@H]7CCCN7C(=O)[C@H](NC(=O)OC)c7ccccc7)nc6c5)csc34)cc2)[nH]1)C(C)C | 1a-luc Y93N (HCV genotype 1a replicon) | 22,328 |
| COC(=O)N[C@H](C(=O)N1CCC[C@H]1c1nc(-c2ccc(-c3ccc(-c4c[nH]c([C@@H]5CCCN5C(=O)[C@@H](NC(=O)OC)C(C)C)n4)cc3)cc2)c[nH]1)C(C)C [BMS-790052, reference compound] | 1a-luc Y93N (HCV genotype 1a replicon) | 7842 |

###

- System: 1a-luc Q30E (HCV genotype 1a replicon)
- Test protocol: Luciferase replicon transient transfection assay, 1a-luc Q30E
- Format: cell-based, hepatitis C virus
- Experimental conditions: Hepatitis C virus, 96 h, Huh7.5 cells, 4 days
For each record, check the reported EC50: if it is below 2 nM write true (1), else write false (0).

| Molecule | Study system | Category label |
| --- | --- | --- |
| COC(=O)N[C@H](C(=O)N1CCC[C@H]1c1ncc(-c2ccc(-c3cc4sc(-c5ccc(-c6c[nH]c(C7CCCN7C(=O)[C@H](NC(=O)OC)c7ccccc7)n6)cc5)cc4s3)cc2)[nH]1)C(C)C (stereo partly drawn) | 1a-luc Q30E (HCV genotype 1a replicon) | false (0) |
| COC(=O)N[C@H](C(=O)N1CCCC1c1ncc(-c2csc3c(-c4ccc(-c5cnc(C6CCCN6C(=O)C(c6ccccc6)N6CCCCC6)[nH]5)cc4)csc23)[nH]1)C(C)C (stereo partly drawn) | 1a-luc Q30E (HCV genotype 1a replicon) | true (1) |
| COC(=O)N[C@H](C(=O)N1CCC[C@H]1c1nc2cc(-c3csc4c(-c5ccc(-c6cnc([C@@H]7CCCN7C(=O)[C@H](NC(=O)OC)c7ccccc7)[nH]6)cc5)csc34)ccc2[nH]1)C(C)C | 1a-luc Q30E (HCV genotype 1a replicon) | true (1) |
| COC(=O)N[C@H](C(=O)N1CCC[C@H]1c1ncc(-c2ccc(-c3csc4c(-c5cnc([C@@H]6CCCN6C(=O)[C@H](NC(=O)OC(C)(C)C)c6ccccc6)[nH]5)csc34)cc2)[nH]1)C(C)C | 1a-luc Q30E (HCV genotype 1a replicon) | false (0) |
| COC(=O)N[C@H](C(=O)N1CCC[C@H]1c1nc(-c2ccc(-c3ccc(-c4c[nH]c([C@@H]5CCCN5C(=O)[C@@H](NC(=O)OC)C(C)C)n4)cc3)cc2)c[nH]1)C(C)C [BMS-790052, reference compound] | 1a-luc Q30E (HCV genotype 1a replicon) | false (0) |
